Entry source: PubChem BioAssay (NCI)

Tested on: RPMI-8226 leukemia
Assay method text: NCI-60 one-dose screen, 48 h
Conditions: 10 µM unless noted
Compounds without any hit were thinned out: in the full panel of roughly 83,000, 20% have a hit. The source made the active and inactive calls. How the source made its calls: active means growth percent below 10; inactive means the rest.
Hi! Could you answer with just one of these? YES = active, NO = inactive

Here are 5 molecules together with their reported answers.
Nc1ccc(-c2nnc(SCc3ccc(O)c4ncccc34)o2)cc1 :: YES
COc1ccc2c(c1)c(-c1nnc(N)nc1-c1cn(C)c3ccccc13)cn2C :: NO
COc1ccc(N)cc1C(=O)Nc1cccc(-c2cc(=O)c3c(OC)c(OC)c(OC)cc3o2)c1 :: NO
NNC(=O)c1sc2nc(-c3cnccn3)cc(-c3cccs3)c2c1N :: NO
C/C=C/C=C1\C[C@H]2CO[C@H](O2)C1=O :: NO

In: # outcome recorded in this test, key = `O=c1[nH]c2cc(Cl)ccc2n1C1CCN(c2ccc3nnc(Cl)n3n2)CC1`
Out: NO

In: # outcome recorded in this test, key = `N/C(=N\OC(=O)CSc1nc2ccccc2s1)c1ccc2ccccc2c1`
Out: NO

In: # outcome recorded in this test, key = `O=C(CCCCCCN1CC(=O)N2[C@@H](c3cccc(Cl)c3)c3[nH]c4ccccc4c3C[C@H]2C1=O)NO`
Out: NO

* * *

Test system: UACC-62 melanoma
Assay method text: NCI-60 one-dose screen, 48 h (100 = growth as untreated, 0 = no growth, -100 = all killed)
Conditions: 10 µM unless noted
Compounds without any hit were thinned out: in the full panel of roughly 83,000, 20% have a hit.
Attribute measured: growth (%)
Answers are plain numbers, in %.

Here are 5 compounds together with their reported answers.
Cn1cc(-c2nn3cc(-c4ccncc4)nc3s2)c2cc(Cl)ccc21 :: 54.5
Clc1ccc(-c2nc3ccc(/C(=N\N=C\c4ccccc4)c4ccccc4)cc3[nH]2)cc1 :: 88.8
COc1cnc2c(c1)C(=O)c1c-2n(CCCn2ccnc2)c(=O)c2cc(OC)c(OC)cc12 :: -11
COc1cc(/C=N/n2cnc3oc(-c4ccccc4)cc3c2=N)cc(CN2CCCC2)c1O :: 96.7
Cc1nn(-c2ccc(Cl)cc2)c(C)c1N=Nc1ccc2oc(=O)ccc2c1 :: 80.5

// for each compound below, give its growth
1. C#CCOc1ccc(C(Nc2cc(Cl)ccc2Cl)c2nnnn2C2CCCCC2)cc1 (centres undefined)
2. COc1ccc(NS(=O)(=O)c2ccc(-c3cnc(C4CC4)o3)cc2)cc1Cl
3. O=C1c2c(c3c4cccnc4[nH]c3c3ccc4ccccc4c23)C(=O)N1CCN1CCNCC1

Out:
[66.7, 34.1, 79.6]

In: Value lookup for growth; key = `COC(=O)c1c(C(=O)OC)c2n(CC(=O)Nc3cccc4cccnc34)c3ccccc3n2c1C(=O)c1ccc(C)cc1`
Out: 84.6

* * *

Give growth for every item shown.
Tested on: DU-145 prostate
Assay method text: NCI-60 one-dose screen, 48 h (100 = growth as untreated, 0 = no growth, -100 = all killed)
Conditions: 10 µM unless noted
The panel holds about 83,000 compounds, 20% with a hit somewhere; the sample as a whole holds those more often. Calls of active or inactive are those of the source. Rule for the calls: active = growth percent below 10; inactive = the rest.

Here are 5 molecules together with their reported answers.
Cc1nn(-c2ccc(Cl)cc2)c(C)c1N=Nc1ccc2oc(=O)ccc2c1 :: 74.5% (inactive)
O=S(=O)(Nc1ccc(C2CC2)cc1)c1ccc(-c2cnc(C3CC3)o2)cc1 :: 88.5% (inactive)
CNC(=O)c1cc(Oc2ccc3nc(NC(=O)c4cccc(C(F)(F)F)c4)sc3c2)ccn1 :: 101% (inactive)
O=C1c2c(O)cc(O)cc2O[C@@H](c2ccc(O)cc2)[C@@H]1c1c(O)cc(O)c2c(=O)cc(-c3ccc(O)c(O)c3)oc12 :: 106% (inactive)
CCCCCCNC(=O)Oc1ccc(/C(=C(\C)c2ccc(Cl)cc2)c2ccc(OCCN(C)C)cc2)cc1 :: 83.4% (inactive)

// for each molecule below, give its growth
1. COc1cc(/C=C2\SC(=O)NC2=O)ccc1OCC(=O)Nc1ccc(C(=O)/C=C/c2cc3ccccc3nc2Cl)cc1
2. COc1ccc(-c2cc(-c3ccc(Cl)cc3)nc3nc(N)nn23)cc1
3. CC[C@@](C)(NC(=O)C(C)(C)NC(=O)[C@@H](NC(=O)[C@@H]1CCCN1C(=O)C(C)(C)NC(=O)[C@H](CC(C)C)NC(=O)CNC(=O)C(C)(C)NC(=O)[C@@H](NC(=O)C(C)(C)NC(=O)[C@H](CCC(N)=O)NC(=O)[C@H](C)NC(=O)C(C)(C)NC(=O)[C@H](C)NC(=O)C(C)(C)NC(=O)[C@H](C)NC(=O)C(C)(C)NC(C)=O)C(C)C)C(C)C)C(=O)N[C@@H](CCC(N)=O)C(=O)N[C@@H](CCC(N)=O)C(=O)N[C@H](CO)CC1CCCCC1
4. COc1ccc(C(=O)c2c(N)c(C#N)cn2-c2cccc(OC)c2)cc1
5. C/C(=C(/C)C1CC1CCN(C(=O)c1ccc([N+](=O)[O-])cc1)S(=O)(=O)c1ccc(C)cc1)C1CCCCC1 (stereo not given)

Out:
["96.9% (inactive)", "101% (inactive)", "35.1% [5 µM] (inactive)", "50.6% (inactive)", "96.6% (inactive)"]
